- Experimental target: Prothrombin (Homo sapiens)
- Experiment notes: Inhibition against human thrombin
pKi: −log10 of the molar value.
Metric name: pKi

Here are 3 compounds together with their reported answers.
CSCc1nc(Cc2ccccc2)n(CC(=O)N[C@@H](CCCCN)B2O[C@@H]3C[C@@H]4C[C@@H](C4(C)C)[C@]3(C)O2)n1 ... 7.19
CC1(C)[C@@H]2C[C@H]3OB([C@H](CCCCN)NC(=O)Cn4nc(CNS(=O)(=O)C(F)(F)F)nc4Cc4ccccc4)O[C@@]3(C)[C@H]1C2 ... 6.68
CC1(C)[C@@H]2C[C@H]3OB([C@H](CCCCN)NC(=O)Cn4nc(Cc5ccccc5)nc4Cc4ccccc4)O[C@@]3(C)[C@H]1C2 ... 7.39

P. CC(C)(C)OC(=O)CCc1nc(Cc2ccccc2)n(CC(=O)N[C@@H](CCCCN)B2O[C@@H]3C[C@@H]4C[C@@H](C4(C)C)[C@]3(C)O2)n1
Q. CC1(C)[C@@H]2C[C@H]3OB([C@H](CCCCN)NC(=O)Cn4nc(CS(C)(=O)=O)nc4Cc4ccccc4)O[C@@]3(C)[C@H]1C2
R. CC1(C)[C@@H]2C[C@H]3OB([C@H](CCCCN)NC(=O)Cn4ncnc4CCc4ccccc4)O[C@@]3(C)[C@H]1C2
## Input Order the records by pKi, with each subsequent value no larger than the one before. In your reply, arrange the labels in the requested order.
## Output P, Q, R
(P: 8.26, Q: 7.96, R: 7.44)

I. CN(CC(=O)N[C@@H](CCCSC(=N)N)B(O)O)C(=O)CCc1ccccc1
II. CC1(C)[C@@H]2C[C@H]3OB([C@H](CCCCN)NC(=O)Cn4nc(CC(=O)O)nc4Cc4ccccc4)O[C@@]3(C)[C@H]1C2
## Input Among I and II , whose measured pKi is the smaller figure? Returns: label corresponding to the selected item.
## Output II
(II: 5.77, I: 9.52)

1. CC1(C)[C@@H]2C[C@H]3OB([C@H](CCCCN)NC(=O)Cn4nc(-c5ccccc5)nc4Cc4ccccc4)O[C@@]3(C)[C@H]1C2
2. CC1(C)[C@@H]2C[C@H]3OB([C@H](CCCCN)NC(=O)Cn4nc(CC#N)nc4Cc4ccccc4[N+](=O)[O-])O[C@@]3(C)[C@H]1C2
3. CC1(C)[C@@H]2C[C@H]3OB([C@H](CCCCN)NC(=O)Cn4nc(CC#N)nc4CCc4ccccc4)O[C@@]3(C)[C@H]1C2
4. COC(=O)Cc1nc(Cc2ccccc2)n(CC(=O)N[C@@H](CCCCN)B2O[C@@H]3C[C@@H]4C[C@@H](C4(C)C)[C@]3(C)O2)n1
## Input Order the entries by their reported pKi, beginning at the minimum. In your reply, arrange the labels in the requested order.
## Output 1, 4, 3, 2

====

// endpoint Ki / system Coagulation factor X (Homo sapiens, UniProt P00742)

Tested on Coagulation factor X (Homo sapiens, UniProt P00742), the item CC1(C)[C@@H]2C[C@H]3OB([C@H](CCCCN)NC(=O)Cn4nc(-c5cccc([N+](=O)[O-])c5)nc4Cc4ccccc4)O[C@@]3(C)[C@H]1C2 showed Ki equal to 4.2 µM

Tested on Coagulation factor X (Homo sapiens, UniProt P00742), the item CSCc1nc(Cc2ccccc2)n(CC(=O)N[C@@H](CCCCN)B2O[C@@H]3C[C@@H]4C[C@@H](C4(C)C)[C@]3(C)O2)n1 showed Ki equal to > 6 µM
